- System: Mφ
- Measurement protocol: Cell culture and apoptosis test (counting YOPRO-1-stained apoptotic cells)
- Assay type: cell-based, Menschliche
- Details: differentiated Mφ pretreated 30 min with compound, then mmLDL or TNF α (3 ng/ml); YOPRO-1 count after four hours; read-out: Apoptose (IC-50)
Reported endpoint: IC50 (µM)
Numbers only here, please. The scale is µM.

**Query** Return reported IC50; argument: COc1ccc(Cn2c3ccccc3c3ccccc32)cc1
**Result** 1

**Query** Would you mind doing COc1ccc(CCN(C)CCC=C2c3ccccc3CCc3ccccc32)cc1OC as well?
**Result** 6

**Query** Would you mind doing COc1ccc(CCN2CCCN(C3c4ccccc4CCc4ccccc43)C2)cc1OC as well?
**Result** 7

* * *

- Tested on: Mφ
- Measurement protocol: Cell culture and apoptosis test (counting YOPRO-1-stained apoptotic cells)
- Assay type: cell-based, Menschliche
- Details: differentiated Mφ pretreated 30 min with compound, then mmLDL or TNF α (3 ng/ml); YOPRO-1 count after four hours; read-out: Apoptose (IC-50)
- From the text: LDL wurde von gesunden, freiwilligen Testpersonen durch sequentielle Flotation in einer Ultrazentrifuge bei vorbestimmten Dichten erhalten, wie in Havel et al. (J. Clin. Invest. 34, 3145 (1955)) bzw. Deigner et al. (Arzneim.-Forsch./Drug Res. 44, 956, (1994)) beschrieben. Für den Apoptose-Test wurde LDL durch Dialyse gegen Tris-HCl-Puffer, der 20 µMol FeCl3 enthielt, für 48 Stunden minimal modifiziert (mmLDL), wie von Watson et al. (J. Clin. Invest. 95, 774 (1995) beschrieben. […]
Reported endpoint: pIC50
The meaning of pIC50 here: minus log10 of the concentration in molar units.

**Query** Return reported pIC50; argument: COc1ccc(CCN(C)CCCN(c2ccccc2)c2ccccc2)cc1
**Result** 5.52

**Query** Would you mind doing COc1ccc(CCN(C)CCCN2c3ccccc3Sc3ccc(Cl)cc32)cc1 as well?
**Result** 5.30

**Query** Would you mind doing COc1ccc(CCN(C)CCCN2c3ccccc3Sc3ccc(Cl)cc32)cc1OC as well?
**Result** 5.70

**Query** Would you mind doing COc1ccc(CCN(C)CCC=C2c3ccccc3CCc3ccccc32)cc1 as well?
**Result** 5.82

**Query** Would you mind doing COc1ccc(Cn2c(=O)c3ccccc3n(Cc3ccc(OC)cc3)c2=O)cc1 as well?
**Result** 6.30

**Query** Would you mind doing COc1ccc(Cn2c(=O)[nH]c3ccccc3c2=O)cc1 as well?
**Result** 5.52

**Query** Would you mind doing COc1ccc(CCN2C(C)CN(CCCN3c4ccccc4Oc4ccccc43)CC2C)cc1 (stereo not shown) as well?
**Result** 6.00

**Query** Would you mind doing COc1ccc(CCN(C)C(F)(F)C(F)(F)C(F)(F)C(F)(F)n2c3ccccc3c3ccccc32)cc1 as well?
**Result** 4.74

**Query** Would you mind doing COc1ccc(CCN(C)CCCN(c2ccccc2)c2ccccc2)cc1OC as well?
**Result** 5.22

**Query** Would you mind doing COc1ccc(CCN(C)CCCN2c3ccccc3Oc3ccccc32)cc1OC as well?
**Result** 5.60

* * *

Would you kindly list IC50 for each of these compounds?
- Target system: sauren Sphingomyelinase (Homo sapiens)
- Construct: endogenous in cells; lysed, supernatant assayed)
- Sequence (P17405 47-631): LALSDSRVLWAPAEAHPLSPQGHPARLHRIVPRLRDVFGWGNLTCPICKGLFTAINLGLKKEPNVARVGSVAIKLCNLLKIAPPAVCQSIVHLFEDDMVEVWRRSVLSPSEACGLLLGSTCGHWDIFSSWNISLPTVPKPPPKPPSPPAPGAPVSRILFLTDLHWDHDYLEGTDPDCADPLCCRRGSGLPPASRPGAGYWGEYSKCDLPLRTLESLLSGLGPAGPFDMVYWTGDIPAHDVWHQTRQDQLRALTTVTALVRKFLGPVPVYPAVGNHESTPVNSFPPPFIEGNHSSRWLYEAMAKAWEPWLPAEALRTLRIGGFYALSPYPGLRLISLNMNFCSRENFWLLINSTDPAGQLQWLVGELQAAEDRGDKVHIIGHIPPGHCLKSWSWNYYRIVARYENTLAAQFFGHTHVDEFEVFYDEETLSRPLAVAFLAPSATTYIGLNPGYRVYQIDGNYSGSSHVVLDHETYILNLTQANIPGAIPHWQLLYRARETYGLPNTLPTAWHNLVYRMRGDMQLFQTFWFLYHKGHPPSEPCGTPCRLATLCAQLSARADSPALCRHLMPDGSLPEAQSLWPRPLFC
- Measurement protocol: SMase inhibition in cells (activity in cell lysates, BODIPY-FL-C5-sphingomyelin, HPLC)
- Details: human macrophages pretreated 30 min with compound, then 2 h oxidised LDL (27 µg/ml); lysate activity at pH 5,0; read-out: Hemmung der sauren Sphingomyelinase (Zellen) (IC-50)

**Query** Return reported IC50; argument: COc1ccc(CCN(C)CCCN2c3ccccc3Sc3ccc(Cl)cc32)cc1OC
**Result** 6 µM

**Query** Would you mind doing COc1ccc(CCNCCCNC2c3ccccc3CCc3ccccc32)cc1 as well?
**Result** 10 µM

**Query** Would you mind doing COc1ccc(CCN(C)CCN2c3ccccc3CCc3ccccc32)cc1 as well?
**Result** 16 µM

**Query** Would you mind doing COc1ccc(CCN(C)CCn2c3ccccc3c3ccccc32)cc1 as well?
**Result** 8 µM

**Query** Would you mind doing COc1ccc(CCN2CCN(CCn3c4ccccc4c4ccccc43)CC2)cc1 as well?
**Result** 33 µM
